- Method notes: Pharmacokinetics in SD rats
- Assay type: in vivo, rat
- Test conditions: male, SD, rat, plasma, iv, 5 mg/kg, iv 5 mg/kg, male SD rats
Measure: half-life

Inquiry: Identify half-life associated with the compound CNC(=O)c1cccc(C)c1Nc1nc(Nc2ccc(N3CCN(C4C5CC6CC4CC(O)(C6)C5)CC3)cc2OC)ncc1C(F)(F)F (stereo not shown) [SJP1602]
Reply text: 55.8 min

* * *

Measure: IC50 (nM)
Write the value in nM as a bare number.

Inquiry: Please indicate recorded IC50 of CNC(=O)c1cccc(C)c1Nc1nc(Nc2ccc(N3CCN(C4C5CC6CC4CC(O)(C6)C5)CC3)cc2OC)ncc1C(F)(F)F (stereo not shown) [SJP1602] measured with FAK (Homo sapiens).
Sequence (Q05397 whole entry): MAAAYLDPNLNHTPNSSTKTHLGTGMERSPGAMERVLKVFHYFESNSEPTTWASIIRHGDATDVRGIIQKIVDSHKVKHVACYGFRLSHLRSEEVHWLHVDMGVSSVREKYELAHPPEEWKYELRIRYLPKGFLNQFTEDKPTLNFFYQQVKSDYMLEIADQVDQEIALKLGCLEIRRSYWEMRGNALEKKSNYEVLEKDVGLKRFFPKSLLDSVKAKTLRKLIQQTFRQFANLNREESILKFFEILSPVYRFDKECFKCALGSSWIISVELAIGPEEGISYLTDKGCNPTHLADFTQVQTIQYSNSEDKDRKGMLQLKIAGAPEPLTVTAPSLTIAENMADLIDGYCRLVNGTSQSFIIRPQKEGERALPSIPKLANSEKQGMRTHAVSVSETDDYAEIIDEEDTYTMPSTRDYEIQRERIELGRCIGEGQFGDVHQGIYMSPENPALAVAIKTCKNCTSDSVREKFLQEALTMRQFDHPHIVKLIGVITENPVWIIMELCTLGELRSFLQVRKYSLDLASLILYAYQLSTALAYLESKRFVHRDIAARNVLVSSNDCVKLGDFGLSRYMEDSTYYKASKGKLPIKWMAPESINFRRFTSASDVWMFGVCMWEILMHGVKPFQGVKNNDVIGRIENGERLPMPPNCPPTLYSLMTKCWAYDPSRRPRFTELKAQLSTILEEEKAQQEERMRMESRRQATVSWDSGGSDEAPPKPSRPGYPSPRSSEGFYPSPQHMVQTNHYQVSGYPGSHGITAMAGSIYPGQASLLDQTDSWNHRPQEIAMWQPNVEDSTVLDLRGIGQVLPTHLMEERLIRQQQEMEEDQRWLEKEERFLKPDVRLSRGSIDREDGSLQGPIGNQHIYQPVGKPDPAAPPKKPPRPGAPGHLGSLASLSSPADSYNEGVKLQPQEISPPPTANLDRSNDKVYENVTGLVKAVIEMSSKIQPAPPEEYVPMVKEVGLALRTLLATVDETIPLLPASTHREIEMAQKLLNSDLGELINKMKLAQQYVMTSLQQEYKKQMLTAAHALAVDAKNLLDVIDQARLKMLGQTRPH
Reply text: 3.7
